Data origin, for the record: paper PMC9516332

# System: 134 cancer cell lines
# METHOD_DESCRIPTION: Cell viability assay (ATPlite, 72 hours), IC50 on cancer cell line panel
# CONDITION_SET: Homo sapiens, K562, read-out: IC50 in cell proliferation assay, K-562 cell line
MEASUREMENT_TYPE: log10(IC50) (log10 of the value in µM)
Transform log10 | Measure IC50 | Unit µM

{"SMILES_CODE": "COc1cc2ncnc(Nc3ccc(F)c(Cl)c3)c2cc1NC(=O)/C=C/CN1CCCCC1", "MEASUREMENT_TYPE": "log10(IC50)", "MEASURED_VALUE": 0.54}

Request: Query log10(IC50) for Cn1cnc2c(F)c(Nc3ccc(Br)cc3Cl)c(C(=O)NOCCO)cc21
Result: -0.62

Request: Query log10(IC50) for COc1ccc(CN2C3CC2CN(c2ccc(-c4cc(OCC(C)(C)O)cn5ncc(C#N)c45)cn2)C3)cn1
Result: 0.74

Request: Query log10(IC50) for CN1CCN(c2ccc(C(=O)Nc3n[nH]c4ccc(Cc5cc(F)cc(F)c5)cc34)c(NC3CCOCC3)c2)CC1
Result: 0.76

Request: Query log10(IC50) for Cc1cc(Nc2ncnc3ccc(NC4=NC(C)(C)CO4)cc23)ccc1Oc1ccn2ncnc2c1
Result: 0.93
